# Test system: Escherichia coli TOP10
# test: shrunken log2 fold change of peptide-encoding DNA abundance (4.5 h post-induction vs induction); higher = less antimicrobial activity (less host growth inhibition)
# condition-details: time post-induction: 4.5 h; library: site-saturation at positions 5, 18, 19, 20
Readings of shrunken log2 fold change for the listed sequences

Worked examples, 4 sequences total:
input-sequence: RRIRARPPRLPRPRPRPWSKPRP
shrunken log2 fold change: -0.27
--
input-sequence: RRIRGRPPRLPRPRPRPDCHPRP
shrunken log2 fold change: 0.217
--
input-sequence: RRIRCRPPRLPRPRPRPKKAPRP
shrunken log2 fold change: -0.235
--
input-sequence: RRIRGRPPRLPRPRPRPICLPRP
shrunken log2 fold change: 0.277

Kindly note: Escherichia coli TOP10, `RRIRNRPPRLPRPRPRPQFIPRP` , shrunken log2 fold change value reported: -0.125

Per the reported Escherichia coli TOP10 data, `RRIRDRPPRLPRPRPRPWWMPRP` has shrunken log2 fold change of 0.0169

Bench note, Escherichia coli TOP10: `RRIRSRPPRLPRPRPRPEWSPRP` , shrunken log2 fold change reads 0.233

Response field shrunken log2 fold change (Escherichia coli TOP10) for item `RRIRARPPRLPRPRPRPTHMPRP` : 0.156

The recorded shrunken log2 fold change with Escherichia coli TOP10 for `RRIRLRPPRLPRPRPRPCMRPRP` was 0.188

Tested system Escherichia coli TOP10; shrunken log2 fold change recorded for `RRIRSRPPRLPRPRPRPIMDPRP` was -0.0619

Item: `RRIRKRPPRLPRPRPRPHLLPRP` | System: Escherichia coli TOP10 | shrunken log2 fold change: 0.00821

Log: Escherichia coli TOP10, sequence `RRIRKRPPRLPRPRPRPYLYPRP` , shrunken log2 fold change = -0.404

Value (shrunken log2 fold change, Escherichia coli TOP10) for record `RRIRHRPPRLPRPRPRPNCAPRP` = 0.0721

For `RRIRFRPPRLPRPRPRPKKGPRP` on Escherichia coli TOP10, measured shrunken log2 fold change was 0.106

`RRIRSRPPRLPRPRPRPYACPRP` on Escherichia coli TOP10 gives shrunken log2 fold change = -0.0148

Short answer on Escherichia coli TOP10 for `RRIRPRPPRLPRPRPRPMIEPRP` , shrunken log2 fold change: -0.0882

Record for `RRIRVRPPRLPRPRPRPRMGPRP` under target or system Escherichia coli TOP10: shrunken log2 fold change reported as 1.86

The value of shrunken log2 fold change recorded for `RRIRARPPRLPRPRPRPIMTPRP` when tested on Escherichia coli TOP10 reads 0.0421

###

# System: Escherichia coli TOP10;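 further: peptides expressed intracellularly from a pBAD plasmid library in pooled LB shake-flask culture, induced with 0.3% L-arabinose, DNA abundance read by NGS, three biological replicates, DESeq2 with apeglm shrinkage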
# test: shrunken log2 fold change of peptide-encoding DNA abundance (4.5 h post-induction vs induction); higher = less antimicrobial activity (less host growth inhibition)
# condition-details: time post-induction: 4.5 h; library: site-saturation at positions 5, 18, 19, 20
endpoint: shrunken log2 fold change
Give your answer as a number; write no unit.

Some solved entries appear below for comparison.
input-sequence: RRIRDRPPRLPRPRPRPMGCPRP
endpoint: shrunken log2 fold change
observed-result: -0.000921
//
input-sequence: RRIRQRPPRLPRPRPRPYFEPRP
endpoint: shrunken log2 fold change
observed-result: -0.524
//
input-sequence: RRIRHRPPRLPRPRPRPHLRPRP
endpoint: shrunken log2 fold change
observed-result: -0.0385
//
input-sequence: RRIRHRPPRLPRPRPRPDDPPRP
endpoint: shrunken log2 fold change
observed-result: -0.0026
//
input-sequence: RRIRERPPRLPRPRPRPINKPRP
endpoint: shrunken log2 fold change
observed-result: -0.506
//
input-sequence: RRIRPRPPRLPRPRPRPVCHPRP
endpoint: shrunken log2 fold change
observed-result: -0.0724
//
input-sequence: RRIRNRPPRLPRPRPRPKWRPRP
endpoint: shrunken log2 fold change
observed-result: 0.792
//
input-sequence: RRIRQRPPRLPRPRPRPWIIPRP
endpoint: shrunken log2 fold change
observed-result: -0.329

Item: `RRIRDRPPRLPRPRPRPWVMPRP` | System: Escherichia coli TOP10 | shrunken log2 fold change: -0.167

shrunken log2 fold change on Escherichia coli TOP10 for `RRIRRRPPRLPRPRPRPPPLPRP` is 0.963

Hey, Escherichia coli TOP10 data for `RRIRERPPRLPRPRPRPSNLPRP` : shrunken log2 fold change came out at -0.302

Observed shrunken log2 fold change on Escherichia coli TOP10, entry `RRIRFRPPRLPRPRPRPPEPPRP` , equals 0.54

Hey, just so you know, these numbers are from the supplement of paper PMC9112550.
